- TARGET_SYSTEM: Phospho-KIT (Tyr719) in GIST882 cells (Homo sapiens, UniProt P10721, K642E)
- Construct: endogenous in cells; host or cells: GIST882
- Sequence (P10721 26-976 K642E): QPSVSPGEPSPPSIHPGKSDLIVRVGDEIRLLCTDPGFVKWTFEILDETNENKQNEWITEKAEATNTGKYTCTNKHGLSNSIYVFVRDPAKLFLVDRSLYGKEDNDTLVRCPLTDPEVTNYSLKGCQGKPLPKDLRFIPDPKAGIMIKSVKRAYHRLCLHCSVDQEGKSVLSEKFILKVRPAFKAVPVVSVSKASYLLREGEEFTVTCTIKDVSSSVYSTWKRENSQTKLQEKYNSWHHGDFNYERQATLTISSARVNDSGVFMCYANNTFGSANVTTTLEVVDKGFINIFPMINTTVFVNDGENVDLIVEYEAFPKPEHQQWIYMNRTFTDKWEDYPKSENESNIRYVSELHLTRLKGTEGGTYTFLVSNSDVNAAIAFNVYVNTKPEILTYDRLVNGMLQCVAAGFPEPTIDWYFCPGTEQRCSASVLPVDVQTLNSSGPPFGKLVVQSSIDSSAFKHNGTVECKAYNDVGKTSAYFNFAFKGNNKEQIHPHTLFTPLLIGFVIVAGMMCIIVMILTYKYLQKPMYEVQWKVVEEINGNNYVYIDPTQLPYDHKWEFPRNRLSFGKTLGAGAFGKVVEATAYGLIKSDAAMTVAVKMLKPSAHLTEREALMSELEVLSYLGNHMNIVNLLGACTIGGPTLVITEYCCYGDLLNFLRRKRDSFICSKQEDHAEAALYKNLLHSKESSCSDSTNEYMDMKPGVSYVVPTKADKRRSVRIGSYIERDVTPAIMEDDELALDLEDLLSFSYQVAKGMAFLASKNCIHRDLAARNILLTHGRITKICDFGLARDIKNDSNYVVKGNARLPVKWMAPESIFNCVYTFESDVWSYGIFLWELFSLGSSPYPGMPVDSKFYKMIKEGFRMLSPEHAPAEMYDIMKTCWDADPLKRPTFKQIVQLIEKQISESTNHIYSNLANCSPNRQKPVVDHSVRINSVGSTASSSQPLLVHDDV
- TEST_DETAILS: GIST882 KIT Western Blot
- Type: cell-based
- MEASUREMENT_CONTEXT: 4 hours, read-out: pKIT suppression by western blot analysi GIST 882
pIC50: −log10 of the molar value.
ASSAY_METRIC: pIC50

Consider the reported pIC50 for these compounds:
COMPOUND	pIC50
CCn1c(=O)c(-c2cc(NC(=O)Nc3cc(F)cc(CN4CCN(C)CC4)c3)c(F)cc2Cl)cc2cnc(NC)cc21 [Example 88]	6.00 to 7.00
CCn1c(=O)c(-c2cc(NC(=O)Nc3cccc(CN4CCN(C)CC4)c3)c(F)cc2Cl)cc2cnc(NC)cc21 [Example 79]	< 6.00
CCn1c(=O)c(-c2cc(NC(=O)Nc3ccccc3)c(F)cc2Br)cc2cnc(NC(C)=O)cc21 [Example 53]	7.00 to 8.00

# value of pIC50, Phospho-KIT (Tyr719) in GIST882 cells (Homo sapiens, UniProt P10721, K642E), item CCn1c(=O)c(-c2cc(NC(=O)Nc3ccccc3)c(F)cc2Cl)cc2cnc(N)cc21 [Example 21] = 7.00 to 8.00

---

- TARGET_SYSTEM: Phospho-KIT (Tyr719) in GIST48 cells (Homo sapiens)
- Sequence (P10721 whole entry V560D/D820A, form open): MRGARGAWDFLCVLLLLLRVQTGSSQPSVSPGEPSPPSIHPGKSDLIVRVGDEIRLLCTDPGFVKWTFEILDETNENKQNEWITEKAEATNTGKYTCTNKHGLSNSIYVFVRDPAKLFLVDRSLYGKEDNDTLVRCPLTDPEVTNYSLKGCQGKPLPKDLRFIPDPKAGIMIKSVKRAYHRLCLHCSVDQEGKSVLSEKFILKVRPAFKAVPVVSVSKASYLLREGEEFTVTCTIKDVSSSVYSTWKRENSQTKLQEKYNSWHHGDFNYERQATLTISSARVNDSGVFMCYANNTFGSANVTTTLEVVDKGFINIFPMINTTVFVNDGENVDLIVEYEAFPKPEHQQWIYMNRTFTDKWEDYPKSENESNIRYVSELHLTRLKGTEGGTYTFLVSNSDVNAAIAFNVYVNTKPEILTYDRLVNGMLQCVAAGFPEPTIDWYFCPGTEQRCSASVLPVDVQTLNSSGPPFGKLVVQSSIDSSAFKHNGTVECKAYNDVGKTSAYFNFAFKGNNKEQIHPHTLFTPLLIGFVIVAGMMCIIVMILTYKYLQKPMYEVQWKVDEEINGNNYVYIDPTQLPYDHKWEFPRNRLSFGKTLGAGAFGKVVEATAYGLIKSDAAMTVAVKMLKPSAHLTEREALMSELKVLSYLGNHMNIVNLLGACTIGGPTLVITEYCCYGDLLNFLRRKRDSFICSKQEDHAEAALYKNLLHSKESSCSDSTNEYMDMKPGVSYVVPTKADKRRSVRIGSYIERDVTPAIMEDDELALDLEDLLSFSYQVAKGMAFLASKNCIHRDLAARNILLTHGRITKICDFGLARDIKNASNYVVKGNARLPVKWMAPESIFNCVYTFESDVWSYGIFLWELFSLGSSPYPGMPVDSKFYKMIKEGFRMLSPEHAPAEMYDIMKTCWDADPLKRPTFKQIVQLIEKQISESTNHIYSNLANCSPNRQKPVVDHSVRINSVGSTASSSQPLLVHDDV
- TEST_DETAILS: GIST48 KIT Western Blot
- MEASUREMENT_CONTEXT: 4 hours, read-out: pKIT suppression by western blot analysi GIST48
ASSAY_METRIC: IC50

Use the examples below as a reference point.
MOLECULE	VALUE_REPORTED
CCn1c(=O)c(-c2cc(NC(=O)Nc3ccccc3)c(F)cc2Cl)cc2cnc(NC)cc21 [Example 3]	100 to 1000 nM
CCn1c(=O)c(-c2cc(NC(=O)Nc3ccccc3F)c(F)cc2C)cc2cnc(NC)cc21 [Example 38]	> 1000 nM
CCn1c(=O)c(-c2cc(NC(=O)Nc3ccccc3)c(F)cc2Br)cc2cnc(NCCOC)cc21 [Example 51]	100 to 1000 nM

molecule CCn1c(=O)c(-c2cc(NC(=O)Nc3ccccc3)c(F)cc2F)cc2cnc(NC(C)=O)cc21 [Example 66] , IC50 observed: 100 to 1000 nM

For CNc1cc2c(cn1)cc(-c1cc(NC(=O)Nc3cccc(F)c3)c(F)cc1C)c(=O)n2C(C)C [Example 41] the molecule record lists IC50 as 100 to 1000 nM

Lab book: IC50 of CCn1c(=O)c(-c2cc(NC(=O)Nc3ccccc3)c(F)cc2F)cc2cnc(NCCOC)cc21 [Example 36] noted as 100 to 1000 nM

Record CCn1c(=O)c(-c2cc(NC(=O)Nc3ccccc3)c(F)cc2Cl)cc2cnc(NC(=O)N3CC(N(C)C)C3)cc21 [Example 102] , field IC50: 10 to 100 nM

// CCn1c(=O)c(-c2cc(NC(=O)Nc3cc(F)cc(F)c3)c(F)cc2Cl)cc2cnc(NC(C)=O)cc21 [Example 67] : IC50 value = < 10 nM

Record CCn1c(=O)c(-c2cc(NC(=O)Nc3ccccc3)c(F)cc2Br)cc2cnc(N)cc21 [Example 57] , field IC50: 100 to 1000 nM

For record CCn1c(=O)c(-c2cc(NC(=O)Nc3cccc(F)c3)c(F)cc2C)cc2cnc(N)cc21 [Example 58] the listed IC50 is 100 to 1000 nM

Sure, the documented IC50 for CCn1c(=O)c(-c2cc(NC(=O)Nc3ccccc3)c(F)cc2Cl)cc2cnc(NC(=O)OC)cc21 [Example 73] is 10 to 100 nM

Notebook: CCn1c(=O)c(-c2cc(NC(=O)Nc3cccc4ccccc34)c(F)cc2C)cc2cnc(NC)cc21 [Example 1] , IC50 read as 10 to 100 nM

Lab note: CCn1c(=O)c(-c2cc(NC(=O)Nc3ccccc3)c(F)cc2Cl)cc2cnc(NC(=O)N3CC[C@@H](N(C)C)C3)cc21 [Example 84] gave IC50 of 10 to 100 nM

The molecule CCn1c(=O)c(-c2cc(NC(=O)Nc3cccc(F)c3)c(F)cc2F)cc2cnc(NC)cc21 [Example 15] showed IC50 equal to 10 to 100 nM

Per the records, this molecule ( CCn1c(=O)c(-c2cc(NC(=O)Nc3cc(F)ccc3F)c(F)cc2C)cc2cnc(NC)cc21 [Example 61] ) has IC50 equal to > 1000 nM

Value of IC50 reported for the molecule CCn1c(=O)c(-c2cc(NC(=O)Nc3ccccc3)c(F)cc2Cl)cc2cnc(N)cc21 [Example 21] is 10 to 100 nM
